System: Mus musculus
Assay: Biodistribution was measured in mice liver 30 minutes after intravenous injection of [125I]-labeled styrylbenzene.
Type: ADME, organism-based
Conditions: in vivo, 0.5 h
Reported endpoint: Dose/organ (%)
One number for each entry, in %.

Use the examples below as a reference point.
>  <Compound smiles>
CN(C)c1ccc(-c2nc3ccc(I)cc3s2)cc1

>  <Reported endpoint>
Dose/organ

>  <Result units>
%

>  <Endpoint result>
10.93

$$$$
>  <Compound smiles>
COc1ccc(/C=C/c2ccc(/C=C/c3ccc(OC)c(C(=O)O)c3)c(I)c2)cc1C(=O)O

>  <Reported endpoint>
Dose/organ

>  <Result units>
%

>  <Endpoint result>
24.47

$$$$
>  <Compound smiles>
O=C(O)c1cc(/C=C/c2ccc(/C=C/c3ccc(O)c(C(=O)O)c3)c(I)c2)ccc1O

>  <Reported endpoint>
Dose/organ

>  <Result units>
%

>  <Endpoint result>
30.16

$$$$

Note: attention shifts to another entry.
Task: Please respond with reported Dose/organ (system Mus musculus) for CN1CCN(c2ccc(-c3nc4ccc(I)cc4s3)cc2)CC1 .
Result: 21.22

====

Molecular target: Amyloid-beta precursor protein (Homo sapiens, UniProt P05067)
Sequence (P05067 whole entry): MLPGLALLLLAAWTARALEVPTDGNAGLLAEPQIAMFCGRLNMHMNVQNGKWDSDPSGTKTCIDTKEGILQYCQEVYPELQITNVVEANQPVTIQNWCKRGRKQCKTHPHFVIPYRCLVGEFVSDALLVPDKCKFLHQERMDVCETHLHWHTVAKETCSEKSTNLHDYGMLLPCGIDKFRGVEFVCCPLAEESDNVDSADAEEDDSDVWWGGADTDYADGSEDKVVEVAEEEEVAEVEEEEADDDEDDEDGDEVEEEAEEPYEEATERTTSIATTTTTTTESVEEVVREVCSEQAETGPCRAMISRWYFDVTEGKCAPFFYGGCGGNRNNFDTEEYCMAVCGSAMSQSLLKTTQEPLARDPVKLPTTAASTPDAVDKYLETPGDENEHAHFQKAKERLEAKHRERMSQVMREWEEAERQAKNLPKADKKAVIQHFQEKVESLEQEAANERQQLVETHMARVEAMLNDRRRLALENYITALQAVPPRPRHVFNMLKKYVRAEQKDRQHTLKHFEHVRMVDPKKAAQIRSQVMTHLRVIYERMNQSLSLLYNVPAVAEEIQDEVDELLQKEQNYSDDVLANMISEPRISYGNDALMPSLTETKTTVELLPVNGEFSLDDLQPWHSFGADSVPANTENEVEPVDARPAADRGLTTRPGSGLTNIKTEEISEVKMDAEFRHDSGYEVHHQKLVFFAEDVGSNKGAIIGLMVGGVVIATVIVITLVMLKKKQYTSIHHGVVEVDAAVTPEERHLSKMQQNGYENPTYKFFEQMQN
Assay: Inhibition constant of compound on ligand binding to aggregates of Amyloid beta was measured by comparing with [125I]IMSB
Reported endpoint: Ki (nM)
One number for each entry, in nM.

Task: Please respond with reported Ki (system Amyloid-beta precursor protein (Homo sapiens, UniProt P05067)) for O=C(O)c1cc(/N=N/c2ccc(-c3ccc(/N=N/c4ccc(O)c(C(=O)O)c4)cc3)cc2)ccc1O .
Result: 0.4

====

Biological target: Amyloid-beta precursor protein (Homo sapiens, UniProt P05067)
Assay: Inhibition constant for amyloid beta compared to [125I]TZDM
Reported endpoint: Ki

>  <Compound>
O=C(O)c1cc(/N=N/c2ccc(-c3ccc(/N=N/c4ccc(O)c(C(=O)O)c4)cc3)cc2)ccc1O [CHRYSAMINE G]

>  <Ki>
> 1000 nM

$$$$

Task: Please supply the value of reported Ki for the item COc1ccc(/C=C/c2ccc(/C=C/c3ccc(OC)c(C(=O)O)c3)c(I)c2)cc1C(=O)O
Result: > 1000 nM

====

Test system: Mus musculus
Assay: Biodistribution was measured in mice lung 30 minutes after intravenous injection of [125I]-labeled styrylbenzene.
Assay type: ADME, organism-based
Conditions: in vivo, 0.5 h
Reported endpoint: Dose/organ
Give the number first and the unit second.

>  <Compound smiles>
CN1CCN(c2ccc(-c3nc4ccc(I)cc4s3)cc2)CC1

>  <Endpoint result>
4.14%

$$$$
>  <Compound smiles>
COc1ccc(/C=C/c2ccc(/C=C/c3ccc(OC)c(C(=O)O)c3)c(I)c2)cc1C(=O)O

>  <Endpoint result>
0.31%

$$$$
>  <Compound smiles>
CN(C)c1ccc(-c2nc3ccc(I)cc3s2)cc1

>  <Endpoint result>
0.72%

$$$$

Note: attention shifts to another entry.
Task: Please supply the value of reported Dose/organ for the item O=C(O)c1cc(/C=C/c2ccc(/C=C/c3ccc(O)c(C(=O)O)c3)c(I)c2)ccc1O
Result: 0.3%

====

Test system: Mus musculus
Test: Biodistribution was measured in mice kidney 30 minutes after intravenous injection of [125I]-labeled styrylbenzene.
Assay type: ADME, organism-based
Settings: in vivo, 0.5 h
Assignment: determine reported Dose/organ for the given compounds.
One number for each entry, in %.

>  <Compound smiles>
CN(C)c1ccc(-c2nc3ccc(I)cc3s2)cc1

>  <Dose/organ (%)>
2.24

$$$$
>  <Compound smiles>
CN1CCN(c2ccc(-c3nc4ccc(I)cc4s3)cc2)CC1

>  <Dose/organ (%)>
8.06

$$$$
>  <Compound smiles>
COc1ccc(/C=C/c2ccc(/C=C/c3ccc(OC)c(C(=O)O)c3)c(I)c2)cc1C(=O)O

>  <Dose/organ (%)>
0.46

$$$$

Note: attention shifts to another entry.
Task: Please respond with reported Dose/organ (system Mus musculus) for O=C(O)c1cc(/C=C/c2ccc(/C=C/c3ccc(O)c(C(=O)O)c3)c(I)c2)ccc1O .
Result: 0.77

====

Tested on: Mus musculus
Assay: Biodistribution was measured in mice brain 30 minutes after intravenous injection of [125I]-labeled styrylbenzene
Assay type: ADME, organism-based
Conditions: in vivo, 0.5 h
Assignment: determine reported Dose/organ for the given molecules.
Numbers only, in %.

Use the examples below as a reference point.
>  <Compound smiles>
O=C(O)c1cc(/C=C/c2ccc(/C=C/c3ccc(O)c(C(=O)O)c3)c(I)c2)ccc1O

>  <System name>
Mus musculus

>  <Reported endpoint>
Dose/organ

>  <Endpoint result>
0.06

$$$$
>  <Compound smiles>
CN(C)c1ccc(-c2nc3ccc(I)cc3s2)cc1

>  <System name>
Mus musculus

>  <Reported endpoint>
Dose/organ

>  <Endpoint result>
0.9

$$$$
>  <Compound smiles>
CN1CCN(c2ccc(-c3nc4ccc(I)cc4s3)cc2)CC1

>  <System name>
Mus musculus

>  <Reported endpoint>
Dose/organ

>  <Endpoint result>
1.59

$$$$

Note: attention shifts to another entry.
Task: Please supply the value of reported Dose/organ for the item COc1ccc(/C=C/c2ccc(/C=C/c3ccc(OC)c(C(=O)O)c3)c(I)c2)cc1C(=O)O
Result: 0.03

====

Tested on: Mus musculus
Experiment: Biodistribution was measured in mice lung 60 minutes after intravenous injection of [125I]-labeled styrylbenzene.
Assay type: ADME, organism-based
Conditions: in vivo, 1 h
Assignment: determine reported Dose/organ for the given molecules.
Numbers only, in %.

>  <Compound smiles>
CN(C)c1ccc(-c2nc3ccc(I)cc3s2)cc1

>  <Reported endpoint>
Dose/organ

>  <Result units>
%

>  <Endpoint result>
0.78

$$$$
>  <Compound smiles>
COc1ccc(/C=C/c2ccc(/C=C/c3ccc(OC)c(C(=O)O)c3)c(I)c2)cc1C(=O)O

>  <Reported endpoint>
Dose/organ

>  <Result units>
%

>  <Endpoint result>
0.16

$$$$
>  <Compound smiles>
O=C(O)c1cc(/C=C/c2ccc(/C=C/c3ccc(O)c(C(=O)O)c3)c(I)c2)ccc1O

>  <Reported endpoint>
Dose/organ

>  <Result units>
%

>  <Endpoint result>
0.25

$$$$

Note: attention shifts to another entry.
Task: Please supply the value of reported Dose/organ for the item CN1CCN(c2ccc(-c3nc4ccc(I)cc4s3)cc2)CC1
Result: 3.38

====

Tested on: Mus musculus
Test: Biodistribution was measured in mice muscle 60 minutes after intravenous injection of [125I]-labeled styrylbenzene.
Assay type: ADME, organism-based, Muscle tissue
Details: in vivo, 1 h
Reported endpoint: Dose/organ (%)
Answers are plain numbers, in %.

>  <Compound smiles>
CN1CCN(c2ccc(-c3nc4ccc(I)cc4s3)cc2)CC1

>  <Reported endpoint>
Dose/organ

>  <Result units>
%

>  <Endpoint result>
19.46

$$$$
>  <Compound smiles>
COc1ccc(/C=C/c2ccc(/C=C/c3ccc(OC)c(C(=O)O)c3)c(I)c2)cc1C(=O)O

>  <Reported endpoint>
Dose/organ

>  <Result units>
%

>  <Endpoint result>
1.3

$$$$
>  <Compound smiles>
O=C(O)c1cc(/C=C/c2ccc(/C=C/c3ccc(O)c(C(=O)O)c3)c(I)c2)ccc1O

>  <Reported endpoint>
Dose/organ

>  <Result units>
%

>  <Endpoint result>
2.98

$$$$

Note: attention shifts to another entry.
Task: Please supply the value of reported Dose/organ for the item CN(C)c1ccc(-c2nc3ccc(I)cc3s2)cc1
Result: 12.81

====

Assignment: determine reported Dose/organ for the given compounds.
Tested on: Mus musculus
Experiment: Biodistribution was measured in mice spleen 60 minutes after intravenous injection of [125I]-labeled styrylbenzene.
Format: ADME, organism-based
Details: in vivo, 1 h
Numbers only, in %.

>  <Compound smiles>
CN(C)c1ccc(-c2nc3ccc(I)cc3s2)cc1

>  <Result units>
%

>  <Dose/organ>
0.17

$$$$
>  <Compound smiles>
O=C(O)c1cc(/C=C/c2ccc(/C=C/c3ccc(O)c(C(=O)O)c3)c(I)c2)ccc1O

>  <Result units>
%

>  <Dose/organ>
0.07

$$$$
>  <Compound smiles>
CN1CCN(c2ccc(-c3nc4ccc(I)cc4s3)cc2)CC1

>  <Result units>
%

>  <Dose/organ>
0.6

$$$$

Note: attention shifts to another entry.
Task: Please supply the value of reported Dose/organ for the item COc1ccc(/C=C/c2ccc(/C=C/c3ccc(OC)c(C(=O)O)c3)c(I)c2)cc1C(=O)O
Result: 0.03

====

System: Mus musculus
Assay: Biodistribution was measured in mice kidney 60 minutes after intravenous injection of [125I]-labeled styrylbenzene.
Format: ADME, organism-based
Settings: in vivo, 1 h
Assignment: determine reported Dose/organ for the given molecules.
Numbers only, in %.

>  <Compound smiles>
O=C(O)c1cc(/C=C/c2ccc(/C=C/c3ccc(O)c(C(=O)O)c3)c(I)c2)ccc1O

>  <Result units>
%

>  <Endpoint result>
0.63

$$$$

For every item in the list below, what is its measured Dose/organ?
1. COc1ccc(/C=C/c2ccc(/C=C/c3ccc(OC)c(C(=O)O)c3)c(I)c2)cc1C(=O)O
2. CN1CCN(c2ccc(-c3nc4ccc(I)cc4s3)cc2)CC1
3. CN(C)c1ccc(-c2nc3ccc(I)cc3s2)cc1

Result:
0.23
7.99
2.23
